Each entry below carries its recorded IC50.
target: Large T antigen (Simian virus 40, UniProt P03070); assay type: functional, Betapolyomavirus macacae;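 further: Confirmatory-stage PubChem screen for compounds that inhibit SV40 T antigen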
Sequence (P03070 whole entry): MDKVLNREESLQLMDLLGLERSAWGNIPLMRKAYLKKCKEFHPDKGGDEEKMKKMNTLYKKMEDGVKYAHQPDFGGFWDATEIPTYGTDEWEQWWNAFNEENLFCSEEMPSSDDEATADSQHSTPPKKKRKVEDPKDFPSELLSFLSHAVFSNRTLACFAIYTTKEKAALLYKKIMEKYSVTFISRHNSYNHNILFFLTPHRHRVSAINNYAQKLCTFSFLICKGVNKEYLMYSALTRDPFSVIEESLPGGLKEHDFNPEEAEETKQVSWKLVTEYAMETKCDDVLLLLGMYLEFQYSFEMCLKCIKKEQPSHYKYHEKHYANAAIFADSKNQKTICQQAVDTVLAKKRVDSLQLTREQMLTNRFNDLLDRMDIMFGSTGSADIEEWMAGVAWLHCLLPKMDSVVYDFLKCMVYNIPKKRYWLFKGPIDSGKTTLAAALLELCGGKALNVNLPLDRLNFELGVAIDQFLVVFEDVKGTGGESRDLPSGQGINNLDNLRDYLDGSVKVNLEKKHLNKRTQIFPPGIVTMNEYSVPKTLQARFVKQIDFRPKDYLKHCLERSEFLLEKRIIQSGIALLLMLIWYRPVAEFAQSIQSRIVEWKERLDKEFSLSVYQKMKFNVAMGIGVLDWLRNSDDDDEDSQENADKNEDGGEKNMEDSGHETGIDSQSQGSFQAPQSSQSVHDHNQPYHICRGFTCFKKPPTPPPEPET
Activity calls are given as the source filed them.

Examples from the recorded data:
CC1=NN(c2ccccc2)C(=O)/C1=C/c1ccc(-c2ccc(C)c(C(=O)O)c2)o1; 35 µM (active)
CS(=O)(=O)c1ccc(N)c(SSc2cc(S(C)(=O)=O)ccc2N)c1; 13 µM (active)
O=C(NCc1ccco1)C1CC(=O)N(c2ccc(O)cc2)C1 (stereo not given); 19.8 µM (active)
CC1=C(C#N)C(=O)N(C2CCS(=O)(=O)C2)C(=O)/C1=C\c1ccc(C)o1 (stereo not given); 47.9 µM (active)
Nc1ccc(OCCCc2c(N)nc(N)nc2N)cc1; 7.73 µM (active)

According to the records, this molecule CN(C)C(S)=Nc1ccc(N2CCOCC2)cc1 displays IC50 of 11 µM (active)

According to the records, this molecule COc1cc(C=C(C(C)=O)C(C)=O)ccc1O displays IC50 of 8.18 µM (active)

According to the records, this molecule Nc1ccc2[nH]c(CCCCCCc3nc4cc(N)ccc4[nH]3)nc2c1 displays IC50 of 5.49 µM (active)

According to the records, this molecule Oc1cc2c(cc1O)[C@H]1c3ccccc3CN[C@@H]1CC2 displays IC50 of 80 µM (active)

According to the records, this molecule Cc1cc(N/N=C/c2ccc(O)cc2O)nc(N2CCOCC2)n1 displays IC50 of > 100 µM (active)
